Test: Pharmacokinetics of RC-1 in mice
Format: in vivo, ICR mice
Details: female, mouse, plasma, ip; 20 mg kg^−1, i.p., ICR mice; read-out: plasma half-life (t1/2) (converted)
READOUT NAME: half-life (h)

CN(CCCNC(=O)CNc1cccc2c1C(=O)N(C1CCC(=O)NC1=O)C2=O)C(C)(C)C=C(C#N)C(=O)N1CCC[C@@H](n2nc(-c3ccc(Oc4ccccc4)cc3)c3c(N)ncnc32)C1 (stereo partly shown)	3.4

* * *

In this section we review reported Degradation at 200 nM (percentage of BTK degradation) values for a set of compounds.
Target: UniProtKB Q06187
Sequence (Q06187 whole entry): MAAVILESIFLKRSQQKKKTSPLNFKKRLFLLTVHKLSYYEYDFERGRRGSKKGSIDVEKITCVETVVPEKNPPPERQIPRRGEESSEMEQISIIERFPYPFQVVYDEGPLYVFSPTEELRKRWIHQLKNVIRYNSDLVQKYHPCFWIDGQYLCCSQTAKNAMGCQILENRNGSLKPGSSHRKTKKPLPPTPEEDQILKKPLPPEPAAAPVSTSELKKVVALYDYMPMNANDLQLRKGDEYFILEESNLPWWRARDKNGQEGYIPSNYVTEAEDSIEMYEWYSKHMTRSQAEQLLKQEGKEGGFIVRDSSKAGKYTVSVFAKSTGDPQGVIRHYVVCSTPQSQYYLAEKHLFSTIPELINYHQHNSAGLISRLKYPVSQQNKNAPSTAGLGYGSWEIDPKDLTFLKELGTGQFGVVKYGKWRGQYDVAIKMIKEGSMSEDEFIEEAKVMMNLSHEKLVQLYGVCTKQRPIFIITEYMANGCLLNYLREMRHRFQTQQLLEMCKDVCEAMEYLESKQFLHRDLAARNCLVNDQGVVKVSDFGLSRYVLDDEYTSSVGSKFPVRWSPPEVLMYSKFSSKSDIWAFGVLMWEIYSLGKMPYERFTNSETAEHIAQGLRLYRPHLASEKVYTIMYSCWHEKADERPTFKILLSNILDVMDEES
Assay: BTK degradation in MOLM-14 cells (western blot)
Type: cell-based
Design: endogenous in cells; host or cells: MOLM-14
Conditions: MOLM-14 cells, 200 nM, 24 h incubation
READOUT NAME: Degradation at 200 nM (percentage of BTK degradation) (%)

CN(CCOCCOCCOCCNC(=O)CNc1cccc2c1C(=O)N(C1CCC(=O)NC1=O)C2=O)C(C)(C)C=C(C#N)C(=O)N1CCCC(n2nc(-c3ccc(Oc4ccccc4)cc3)c3c(N)ncnc32)C1 (stereo not shown)	56
CN(CCCNc1cccc2c1C(=O)N(C1CCC(=O)NC1=O)C2=O)C(C)(C)C=C(C#N)C(=O)N1CCCC(n2nc(-c3ccc(Oc4ccccc4)cc3)c3c(N)ncnc32)C1 (stereo not shown)	15
CN(CCCNC(=O)COc1cccc2c1C(=O)N(C1CCC(=O)NC1=O)C2=O)C(C)(C)C=C(C#N)C(=O)N1CCC[C@@H](n2nc(-c3ccc(Oc4ccccc4)cc3)c3c(N)ncnc32)C1 (stereo partly shown)	30
CN(CCCNC(=O)CNc1cccc2c1C(=O)N(C1CCC(=O)NC1=O)C2=O)C(C)(C)C=C(C#N)C(=O)N1CCC[C@@H](n2nc(-c3ccc(Oc4ccccc4)cc3)c3c(N)ncnc32)C1 (stereo partly shown)	81
